Just for reference, patent US12655116B2 is where these values come from.

- System: ECHCG
- test.name: Pre-emergence herbicidal action against ECHCG
- Type: in vivo, Echinochloa crus-galli
- condition.set: Echinochloa crus-galli, 504 h, 80 g/ha
parameter: pest or weed control at 80 g/ha (%)
# unit: % | format: bare number

Before answering, review these 10 worked examples.
{"smiles.code": "COc1c(C(=O)Nc2nnnn2C)ccc(C(F)(F)F)c1C(=O)NC1CC1", "tgt": "ECHCG", "unit.info": "%", "pest or weed control at 80 g/ha": 100}
{"smiles.code": "CNC(=O)c1c(Cl)ccc(C(=O)Nc2nnnn2C)c1Br", "tgt": "ECHCG", "unit.info": "%", "pest or weed control at 80 g/ha": 90}
{"smiles.code": "COc1c(C(=O)Nc2nnnn2C)ccc(C(F)F)c1C(=O)NC1CC1", "tgt": "ECHCG", "unit.info": "%", "pest or weed control at 80 g/ha": 100}
{"smiles.code": "CCc1c(C(=O)Nc2nnnn2CC)ccc(C(F)F)c1C(=O)NC1CC1", "tgt": "ECHCG", "unit.info": "%", "pest or weed control at 80 g/ha": 100}
{"smiles.code": "Cc1c(C(=O)Nc2nnnn2C)ccc(C(F)F)c1C(=O)NC(C)C", "tgt": "ECHCG", "unit.info": "%", "pest or weed control at 80 g/ha": 90}
{"smiles.code": "CC(C)NC(=O)c1c(Br)ccc(C(=O)Nc2nnnn2C)c1Cl", "tgt": "ECHCG", "unit.info": "%", "pest or weed control at 80 g/ha": 100}
{"smiles.code": "Cn1nnnc1NC(=O)c1ccc(Cl)c(C(=O)NC2CC2)c1Cl", "tgt": "ECHCG", "unit.info": "%", "pest or weed control at 80 g/ha": 100}
{"smiles.code": "CNC(=O)c1c(C(F)(F)F)ccc(C(=O)Nc2nnnn2C)c1Cl", "tgt": "ECHCG", "unit.info": "%", "pest or weed control at 80 g/ha": 100}
{"smiles.code": "CCCn1nnnc1NC(=O)c1ccc(C(F)(F)F)c(C(=O)NC)c1Cl", "tgt": "ECHCG", "unit.info": "%", "pest or weed control at 80 g/ha": 80}
{"smiles.code": "CCc1c(C(=O)Nc2nnnn2C)ccc(C(F)(F)F)c1C(=O)NC1CC1", "tgt": "ECHCG", "unit.info": "%", "pest or weed control at 80 g/ha": 100}

Incoming: Look up pest or weed control at 80 g/ha of CNC(=O)c1c(Br)ccc(C(=O)Nc2nnnn2C)c1Cl and report it.
Outgoing: 100

Incoming: Report pest or weed control at 80 g/ha, nothing else, for this compound: CCn1nnnc1NC(=O)c1ccc(C(F)F)c(C(=O)NC2CC2)c1Cl
Outgoing: 90

Incoming: Give pest or weed control at 80 g/ha for CCc1c(C(=O)Nc2nnnn2C)ccc(C(F)F)c1C(=O)NC1CC1
Outgoing: 100
